- MEASUREMENT_DESCRIPTION: biodistribution in A431-CCK2R/A431-mock xenografted BALB/c nude mice
- Assay type: in vivo
- RUN_PARAMETERS: female, athymic BALB/c nude, mouse, spleen, iv, 20 pmol, total radioactivity, 20 pmol, 4 h p.i.; read-out: uptake in spleen
Non-standard residues stand in square brackets, D forms with d. Residues, ends and D or L forms follow the SMILES beside them. *: point of attachment. DOTA = O=C(O)CN1CCN(CC(=O)O)CCN(CC(=O)*)CCN(CC(=O)O)CC1; 1Nal = N[C@@H](Cc1cccc2ccccc12)C(=O)O; NMeNle = CCCC[C@H](NC)C(=O)O
MEASURE_NAME: tissue uptake at 4 h (%ID/g)
Please give a number only; it is taken to be in %ID/g.

Some compounds with recorded tissue uptake at 4 h:
Could you tell me which tissue uptake at 4 h is on file for CCCC[C@@H](C(=O)N[C@@H](CC(=O)O)C(=O)N[C@@H](Cc1cccc2ccccc12)C(N)=O)N(C)C(=O)[C@H](Cc1c[nH]c2ccccc12)NC(=O)CNC(=O)[C@H](Cc1ccc(O)cc1)NC(=O)[C@@H]1CCCN1C(=O)[C@@H](CCC(=O)O)NC(=O)CN1CCN(CC(=O)O)CCN(CC(=O)O)CCN(CC(=O)O)CC1 [[^177Lu]Lu-1, metal not drawn] ({DOTA}-[dE]PYGW[NMeNle]D[1Nal]-NH2) ? 0.18

For the compound CCCC[C@@H](C(=O)N[C@@H](CC(=O)O)C(=O)N[C@@H](Cc1cccc2ccccc12)C(N)=O)N(C)C(=O)[C@H](Cc1c[nH]c2ccccc12)NC(=O)[C@@H]1CCCN1C(=O)[C@H](Cc1ccc(O)cc1)NC(=O)[C@H](C)NC(=O)[C@@H](CCC(=O)O)NC(=O)CN1CCN(CC(=O)O)CCN(CC(=O)O)CCN(CC(=O)O)CC1 [[^177Lu]Lu-3, metal not drawn] ({DOTA}-[dE]AYPW[NMeNle]D[1Nal]-NH2) , what tissue uptake at 4 h is on record? 0.19

Pending compound:
May I ask what tissue uptake at 4 h has been recorded for CCCC[C@@H](C(=O)N[C@@H](CC(=O)O)C(=O)N[C@@H](Cc1cccc2ccccc12)C(N)=O)N(C)C(=O)[C@H](Cc1c[nH]c2ccccc12)NC(=O)CNC(=O)[C@@H]1CCCN1C(=O)[C@H](Cc1ccc(O)cc1)NC(=O)[C@@H](CCC(=O)O)NC(=O)CN1CCN(CC(=O)O)CCN(CC(=O)O)CCN(CC(=O)O)CC1 [[^177Lu]Lu-2, metal not drawn] ({DOTA}-[dE]YPGW[NMeNle]D[1Nal]-NH2) ? 0.16

----------
- MEASUREMENT_DESCRIPTION: biodistribution in A431-CCK2R/A431-mock xenografted BALB/c nude mice
- Format: in vivo
- RUN_PARAMETERS: female, athymic BALB/c nude, mouse, intestine, iv, 20 pmol, total radioactivity, 20 pmol, 12 h p.i.; read-out: uptake in intestine
Non-standard residues stand in square brackets, D forms with d. Residues, ends and D or L forms follow the SMILES beside them. *: point of attachment. DOTA = O=C(O)CN1CCN(CC(=O)O)CCN(CC(=O)*)CCN(CC(=O)O)CC1; 1Nal = N[C@@H](Cc1cccc2ccccc12)C(=O)O; NMeNle = CCCC[C@H](NC)C(=O)O
MEASURE_NAME: tissue uptake at 12 h (%ID/g)
API: value field is a number in %ID/g; no unit string.

Returns the measured tissue uptake at 12 h for the input compound. Input: CCCC[C@@H](C(=O)N[C@@H](CC(=O)O)C(=O)N[C@@H](Cc1cccc2ccccc12)C(N)=O)N(C)C(=O)[C@H](Cc1c[nH]c2ccccc12)NC(=O)CNC(=O)[C@@H]1CCCN1C(=O)[C@H](Cc1ccc(O)cc1)NC(=O)[C@@H](CCC(=O)O)NC(=O)CN1CCN(CC(=O)O)CCN(CC(=O)O)CCN(CC(=O)O)CC1 [[^177Lu]Lu-2, metal not drawn] ({DOTA}-[dE]YPGW[NMeNle]D[1Nal]-NH2) 0.19

Continuing:
What tissue uptake at 12 h value was documented for this compound, CCCC[C@@H](C(=O)N[C@@H](CC(=O)O)C(=O)N[C@@H](Cc1cccc2ccccc12)C(N)=O)N(C)C(=O)[C@H](Cc1c[nH]c2ccccc12)NC(=O)CNC(=O)[C@H](Cc1ccc(O)cc1)NC(=O)[C@@H]1CCCN1C(=O)[C@@H](CCC(=O)O)NC(=O)CN1CCN(CC(=O)O)CCN(CC(=O)O)CCN(CC(=O)O)CC1 [[^177Lu]Lu-1, metal not drawn] ({DOTA}-[dE]PYGW[NMeNle]D[1Nal]-NH2) ? 0.24

----------
- MEASUREMENT_DESCRIPTION: biodistribution in A431-CCK2R/A431-mock xenografted BALB/c nude mice
- Assay type: in vivo
- RUN_PARAMETERS: female, athymic BALB/c nude, mouse, kidney, iv, 20 pmol, total radioactivity, 20 pmol, 4 h p.i.; read-out: uptake in kidney
Non-standard residues stand in square brackets, D forms with d. Residues, ends and D or L forms follow the SMILES beside them. *: point of attachment. DOTA = O=C(O)CN1CCN(CC(=O)O)CCN(CC(=O)*)CCN(CC(=O)O)CC1; 1Nal = N[C@@H](Cc1cccc2ccccc12)C(=O)O; NMeNle = CCCC[C@H](NC)C(=O)O
# reported tissue uptake at 4 h; entries follow
Answer in %ID/g, number only, no unit symbol.

# lookup: tissue uptake at 4 h of CCCC[C@@H](C(=O)N[C@@H](CC(=O)O)C(=O)N[C@@H](Cc1cccc2ccccc12)C(N)=O)N(C)C(=O)[C@H](Cc1c[nH]c2ccccc12)NC(=O)[C@@H]1CCCN1C(=O)[C@H](Cc1ccc(O)cc1)NC(=O)[C@H](C)NC(=O)[C@@H](CCC(=O)O)NC(=O)CN1CCN(CC(=O)O)CCN(CC(=O)O)CCN(CC(=O)O)CC1 [[^177Lu]Lu-3, metal not drawn] ({DOTA}-[dE]AYPW[NMeNle]D[1Nal]-NH2) 6.61

Next:
Fill blank: measured tissue uptake at 4 h of the compound CCCC[C@@H](C(=O)N[C@@H](CC(=O)O)C(=O)N[C@@H](Cc1cccc2ccccc12)C(N)=O)N(C)C(=O)[C@H](Cc1c[nH]c2ccccc12)NC(=O)CNC(=O)[C@H](Cc1ccc(O)cc1)NC(=O)[C@@H]1CCCN1C(=O)[C@@H](CCC(=O)O)NC(=O)CN1CCN(CC(=O)O)CCN(CC(=O)O)CCN(CC(=O)O)CC1 [[^177Lu]Lu-1, metal not drawn] ({DOTA}-[dE]PYGW[NMeNle]D[1Nal]-NH2) is ____. 3.97

Look up tissue uptake at 4 h: CCCC[C@@H](C(=O)N[C@@H](CC(=O)O)C(=O)N[C@@H](Cc1cccc2ccccc12)C(N)=O)N(C)C(=O)[C@H](Cc1c[nH]c2ccccc12)NC(=O)CNC(=O)[C@@H]1CCCN1C(=O)[C@H](Cc1ccc(O)cc1)NC(=O)[C@@H](CCC(=O)O)NC(=O)CN1CCN(CC(=O)O)CCN(CC(=O)O)CCN(CC(=O)O)CC1 [[^177Lu]Lu-2, metal not drawn] ({DOTA}-[dE]YPGW[NMeNle]D[1Nal]-NH2) 5.53

----------
- MEASUREMENT_DESCRIPTION: biodistribution in A431-CCK2R/A431-mock xenografted BALB/c nude mice
- Format: in vivo
- RUN_PARAMETERS: female, athymic BALB/c nude, mouse, blood, iv, 150 pmol, total radioactivity, 150 pmol, 4 h p.i.; read-out: uptake in blood
Non-standard residues stand in square brackets, D forms with d. Residues, ends and D or L forms follow the SMILES beside them. *: point of attachment. DOTA = O=C(O)CN1CCN(CC(=O)O)CCN(CC(=O)*)CCN(CC(=O)O)CC1; 1Nal = N[C@@H](Cc1cccc2ccccc12)C(=O)O; NMeNle = CCCC[C@H](NC)C(=O)O
MEASURE_NAME: tissue uptake at 4 h (%ID/g)
Please respond with the number in %ID/g and leave the unit unwritten.

What does the record list as tissue uptake at 4 h for CCCC[C@@H](C(=O)N[C@@H](CC(=O)O)C(=O)N[C@@H](Cc1cccc2ccccc12)C(N)=O)N(C)C(=O)[C@H](Cc1c[nH]c2ccccc12)NC(=O)CNC(=O)[C@@H]1CCCN1C(=O)[C@H](Cc1ccc(O)cc1)NC(=O)[C@@H](CCC(=O)O)NC(=O)CN1CCN(CC(=O)O)CCN(CC(=O)O)CCN(CC(=O)O)CC1 [[^177Lu]Lu-2, metal not drawn] ({DOTA}-[dE]YPGW[NMeNle]D[1Nal]-NH2) ? 0.09

----------
Recorded tissue uptake at 12 h by entry
- MEASUREMENT_DESCRIPTION: biodistribution in A431-CCK2R/A431-mock xenografted BALB/c nude mice
- Assay type: in vivo
- RUN_PARAMETERS: female, athymic BALB/c nude, mouse, stomach, iv, 20 pmol, total radioactivity, 20 pmol, 12 h p.i.; read-out: uptake in stomach
Non-standard residues stand in square brackets, D forms with d. Residues, ends and D or L forms follow the SMILES beside them. *: point of attachment. DOTA = O=C(O)CN1CCN(CC(=O)O)CCN(CC(=O)*)CCN(CC(=O)O)CC1; 1Nal = N[C@@H](Cc1cccc2ccccc12)C(=O)O; NMeNle = CCCC[C@H](NC)C(=O)O
State the answer as a number, implicitly in %ID/g.

Quick one: tissue uptake at 12 h for CCCC[C@@H](C(=O)N[C@@H](CC(=O)O)C(=O)N[C@@H](Cc1cccc2ccccc12)C(N)=O)N(C)C(=O)[C@H](Cc1c[nH]c2ccccc12)NC(=O)CNC(=O)[C@@H]1CCCN1C(=O)[C@H](Cc1ccc(O)cc1)NC(=O)[C@@H](CCC(=O)O)NC(=O)CN1CCN(CC(=O)O)CCN(CC(=O)O)CCN(CC(=O)O)CC1 [[^177Lu]Lu-2, metal not drawn] ({DOTA}-[dE]YPGW[NMeNle]D[1Nal]-NH2) ? 4.12

Proceed to the following item.
Consider the compound shown here: CCCC[C@@H](C(=O)N[C@@H](CC(=O)O)C(=O)N[C@@H](Cc1cccc2ccccc12)C(N)=O)N(C)C(=O)[C@H](Cc1c[nH]c2ccccc12)NC(=O)CNC(=O)[C@H](Cc1ccc(O)cc1)NC(=O)[C@@H]1CCCN1C(=O)[C@@H](CCC(=O)O)NC(=O)CN1CCN(CC(=O)O)CCN(CC(=O)O)CCN(CC(=O)O)CC1 [[^177Lu]Lu-1, metal not drawn] ({DOTA}-[dE]PYGW[NMeNle]D[1Nal]-NH2) What is its recorded tissue uptake at 12 h? 4.18
